# Test system: Human immunodeficiency virus 1
# Method: Antiviral activity against HIV1 isolate 1 harboring protease L10I, E35D, N37D, M46I, I54V, G57R, L63P, A71V, T74P, I84V, L90M, I93L mutant infected in human MT4 cells assessed as inhibition of virus-induced cell death after 5 days by MTT assay relative to wild type HIV1 pNL4-3
# Type: functional
fold change (FC) overview

For orientation, consider the following solved cases.
- Smiles Str: "COC(=O)N[C@H](C(=O)N[C@@H](Cc1ccccc1)C[C@H](O)[C@H](Cc1ccc(-c2ccc(C#N)nc2)cc1)NC(=O)[C@@H](NC(=O)OC)C(C)(C)C)C(C)(C)C"
  Value Reported: 16
- Smiles Str: "COC(=O)N[C@H](C(=O)N[C@@H](Cc1ccccc1)C[C@H](O)[C@H](Cc1ccc(-c2ccc(CO)nc2)cc1)NC(=O)[C@@H](NC(=O)OC)C(C)(C)C)C(C)(C)C"
  Value Reported: 12
- Smiles Str: "COC(=O)N[C@H](C(=O)N[C@@H](Cc1ccccc1)C[C@H](O)[C@H](Cc1ccc(-c2cccc(N)c2)cc1)NC(=O)[C@@H](NC(=O)OC)C(C)(C)C)C(C)(C)C"
  Value Reported: 9
- Smiles Str: "COC(=O)N[C@H](C(=O)N[C@@H](Cc1ccccc1)C[C@H](O)[C@H](Cc1ccc(-c2ccc(CO)cc2)cc1)NC(=O)[C@@H](NC(=O)OC)C(C)(C)C)C(C)(C)C"
  Value Reported: 45
- Smiles Str: "COC(=O)N[C@H](C(=O)N[C@@H](Cc1ccccc1)C[C@H](O)[C@H](Cc1ccc(-c2ccc(C(C)=O)cc2)cc1)NC(=O)[C@@H](NC(=O)OC)C(C)(C)C)C(C)(C)C"
  Value Reported: 28

Tell me its fold change (FC) given `COC(=O)N[C@H](C(=O)N[C@H](Cc1ccc(-c2ccccn2)cc1)C[C@H](O)[C@H](Cc1ccccc1)NC(=O)[C@@H](N1CCN(Cc2cccc(C(C)(C)O)n2)C1=O)C(C)(C)C)C(C)(C)C` as the entry. 57

Give me measured fold change (FC), please, for this molecule: `COC(=O)N[C@H](C(=O)N[C@@H](Cc1ccccc1)C[C@H](O)[C@H](Cc1ccc(-c2ccc(N)cc2)cc1)NC(=O)[C@@H](NC(=O)OC)C(C)(C)C)C(C)(C)C` 45

Give fold change (FC) for `COC(=O)N[C@H](C(=O)N[C@@H](Cc1ccccc1)C[C@H](O)[C@H](Cc1ccc(-c2ccnc(F)c2)cc1)NC(=O)[C@@H](NC(=O)OC)C(C)(C)C)C(C)(C)C` 30

Give fold change (FC) for the following molecule: `COC(=O)N[C@H](C(=O)N[C@@H](Cc1ccccc1)C[C@H](O)[C@H](Cc1ccc(-c2cncc(F)c2)cc1)NC(=O)[C@@H](NC(=O)OC)C(C)(C)C)C(C)(C)C` 38

Attribution: ChEMBL document CHEMBL1833957
